- assay-notes: in vitro
- setup-conditions: human, pooled human liver microsomes
assay-endpoint: Km (µM)
Reply with just the number (in µM).

QUERY: Can you share its Km? I mean this compound: `CCOC(=O)C1(c2ccccc2)CCN(C)CC1`
RESULT: 1600

###

- study-target: CYP2B6 (Homo sapiens)
- Sequence (P20813 1-491): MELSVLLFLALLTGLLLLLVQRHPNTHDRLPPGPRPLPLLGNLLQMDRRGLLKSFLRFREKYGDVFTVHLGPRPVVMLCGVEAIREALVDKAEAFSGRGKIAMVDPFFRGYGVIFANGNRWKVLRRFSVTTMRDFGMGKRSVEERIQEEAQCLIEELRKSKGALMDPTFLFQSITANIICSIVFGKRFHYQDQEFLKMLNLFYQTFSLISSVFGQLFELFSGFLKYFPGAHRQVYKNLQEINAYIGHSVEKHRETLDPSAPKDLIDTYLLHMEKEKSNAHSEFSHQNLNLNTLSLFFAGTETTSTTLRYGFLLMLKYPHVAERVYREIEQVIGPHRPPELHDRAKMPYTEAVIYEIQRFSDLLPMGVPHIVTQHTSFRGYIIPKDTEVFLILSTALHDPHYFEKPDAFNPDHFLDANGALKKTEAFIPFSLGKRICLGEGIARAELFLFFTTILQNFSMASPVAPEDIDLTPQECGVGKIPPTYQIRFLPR
- assay-notes: in vitro
- setup-conditions: recombinant CYP2B6, pH 7.4
assay-endpoint: Km at 10 min
State the result as a value with its unit after it.

QUERY: Can you share its Km at 10 min? I mean this molecule: `CCOC(=O)C1(c2ccccc2)CCN(C)CC1`
RESULT: 262 µM
